Provenance of the data: the emibetuzumab library of Makowski et al. (2022)

B1: VH:VL chains; a variant is named by its letters at X, in order (parent)
chain 1: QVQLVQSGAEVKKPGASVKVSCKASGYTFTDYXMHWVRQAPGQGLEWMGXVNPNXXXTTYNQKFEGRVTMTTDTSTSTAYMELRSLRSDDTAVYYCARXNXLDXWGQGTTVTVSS
chain 2: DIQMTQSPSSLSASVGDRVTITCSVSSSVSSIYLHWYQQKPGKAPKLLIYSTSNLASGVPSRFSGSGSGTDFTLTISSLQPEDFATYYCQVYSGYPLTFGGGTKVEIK

variants of: B1; experiment: yeast display scFab, FACS + sequencing
endpoint-name: non-specific binding call

Some solved entries appear below for comparison.
FRGRGSGF = binds
FRGRGDLS = binds
YRRGDFWA = no binding
YRAKGSSS = binds
YKEGDSGV chain 1 R87K = no binding

// moving on: another record for non-specific binding call
## Input Tell me the measured non-specific binding call of DRGRDAWS , please.
## Output no binding
